methodNotes: Epacadostat absolute quantification in CT26 tumor sections by QMSI (MALDI MSI)
Format: in vivo, BALB/c mice
testContext: BALB/c, mouse, CT26 tumor tissue, oral, 100 mg/kg, available on tissue quantity of EPA in treated CT26 tumors, LC-MS/MS and QMSI
Protocol: Colon carcinoma CT26 cell line was subcutaneously grafted into BALB/c mice (Charles River Laboratories, France). […] Tumors were sampled and snap frozen in liquid nitrogen for 15 s. The samples were kept at −80° C. until use. […] Then, low limit of detection (LOD), low limit of quantitation (LLOQ) and limit of linearity parameters were defined for the calibration curve that has been performed using at least 10 spotted concentrations on 10 μm thickness control tumor tissue sections. […]
recordedEndpoint: concentration at 2 h

Give its concentration at 2 h value. Item: NS(=O)(=O)NCCNc1nonc1C(=NO)Nc1ccc(F)c(Br)c1 35000 to 48000 ng/g
